System: Pseudotyped HCV GT1b particles (HCVpp), entry into Huh7-high CD81 cells
Experiment: microbe, parasite or virus in culture
Format: cell-based, HCV GT1b Con1 strain
Settings: Hepatitis C virus, GT1B, 72 h, read-out: HCVpp GT-1b (EC50, μM)
Structures can show the parent of a compound that is named as a salt.
Here, each record is paired with measured EC50 data.

>  <Compound>
Nc1nc(Nc2cc(Cl)c(-c3ccc(S(=O)(=O)C4CNC4)cc3)c(C(F)(F)F)c2)n[nH]1 [Compound 67, hydrochloride]

>  <Units Text>
µM

>  <EC50>
0.107

$$$$
>  <Compound>
Nc1nc(Nc2cc(Cl)c(-c3ccc(F)cc3)c(Cl)c2)n[nH]1

>  <Units Text>
µM

>  <EC50>
0.64

$$$$
>  <Compound>
NCCCCOc1ccc(-c2c(Cl)cc(Nc3n[nH]c(N)n3)cc2Cl)cc1

>  <Units Text>
µM

>  <EC50>
0.455

$$$$
>  <Compound>
COc1ccc(-c2c(Cl)cc(Nc3n[nH]c(N)n3)cc2C(F)(F)F)cc1S(=O)(=O)NC(C)(C)CO

>  <Units Text>
µM

>  <EC50>
0.005

$$$$
